Percent Effect reference
system.under.test: AMP-activated protein kinase, AMPK (Homo sapiens) (UniProt P54646+O43741+P54619+Q9UGJ0+Q9Y478+Q13131+Q9UGI9)
test.name: AMP-dependent Kinase enzyme assay. An in vitro enzyme assay that detects ADP turnover that is directly proportional to AMPK activity. This uses naive AMPK that is activated during the assay with MK-8722
Format: functional
Set-up: scale not given: direction of the effect not stated beside the values
condition.description: 30 µM
Dear colleague, please return just the value in %, with no unit written.

Name the reported Percent Effect value associated with the compound COc1cc2nc(C)n(CC(=O)O)c(=O)c2cc1OC
6.76

Another compound: O=C(NCc1cn2c(n1)CN(CC1CCOCC1)CC2)C1CCC1
4.27

Another compound: O=C(O)c1csc(S(=O)(=O)N2CCCc3ccc(F)cc32)c1
-4.41

Another compound: Cc1nc(CN(C)C2CCN(CC(=O)N3CCOCC3)C2)no1 (centres undefined)
-5.27

Another compound: CC(C)OCCC(=O)N(C)CCCc1cc(-c2ccccc2)no1
5.99

Another compound: O=C(CN1CCc2cncnc2C1)NCCOc1ccccc1
-16.1

Another compound: O=C(c1ccccn1)N1CCn2cnc(COCC3CC3)c2C1
3.19

Another compound: Cc1nc(N(C)C)nc2c1COCC21CCN(C(=O)NC(C)C)C1 (centres undefined)
-0.0672

Another compound: CN1CCN(C(=O)c2nc3c(o2)CN(C(=O)c2cccnc2)C3)CC1
-4.16

Another compound: Cc1cc2ccccc2n1CCC(=O)NCc1ncc[nH]1
6.43

Another compound: COc1cccc(C(=O)N2CCCCC2CNC(N)=O)c1 (centres undefined)
4.5

Another compound: CC(C)N1CCn2c(nc3cc(C(N)=O)ccc32)C1
-4.63

Another compound: CC(=O)NCCNC(=O)c1sc(-c2ccc(Cl)s2)nc1C
5.52

Another compound: CCn1cc(CN2CCCN(C(=O)C3=NN(C)C(=O)CC3)CC2)cn1
0.0374

Another compound: COc1ccc(C2=CCN(C(=O)CN(C)CC(N)=O)CC2)cc1
0.216

Another compound: Cc1cc(C[C@@H]2COC[C@@H]2NC(=O)CN2CCCN(C)CC2)on1
2.04
